Numbers sourced from patent US7745587.

Examples of binders with documented IC50 of MMP-14 inhibition (MMP-14 at 2 pM), IgG follow.
Target: human MMP-14 (human, UniProt P50281 112-541, limits assumed)
Assay: cell-based or functional assay
Dear colleague, please return just the value in nM, with no unit written.

Example entries begin here.
- M0038-F01 IgG (antibody, V domains shown, IgG of the Fab) VH: EVQLLESGGGLVQPGGSLRLSCAASGFTFSLYSMNWVRQAPGKGLEWVSSIYSSGGSTLYADSVKGRFTISRDNSKNTLYLQMNSLRAEDTAVYYCARGRAFDIWGQGTMVTVSS VL: DIQMTQSPSSLSAFVGDKVTITCRASQSVGTYLNWYQQKAGKAPELLIYATSNLRSGVPSRFSGSGSGTDFTLTINTLQPEDFATYYCQQSYSIPRFTFGPGTKVDIK: 2
- M0031-F01 IgG (antibody, V domains shown) VH: EVQLLESGGGLVQPGGSLRLSCAASGFTFSTYEMHWVRQAPGKGLEWVSSIYSSGGWTGYADSVKGRFTISRDNSKNTLYLQMNSLRAEDTAVYYCARSQQYYDFSSRYYGMDVWGQGTTVTVSS VL: QSELTQPPSVSGTPGQRVTISCSGTSANIGRNAVHWYQQLPGTAPKLLIHSNNRRPSGVPDRFSGSKSGTSASLAISGLQSEDEADYYCAAWENSLNAFYVFGTGTKVTVL: 15.2
- M0040-A06 IgG (antibody, V domains shown) VH: EVQLLESGGGLVQPGGSLRLSCAASGFTFSYYGMYWVRQAPGKGLEWVSSISSSGGYTDYADSVKGRFTISRDNSKNTLYLQMNSLRAEDTAVYYCARRIKYYDIEGEGAFDIWGQGTMVTVSS VL: DIVMTQTPPSLPVNPGEPASISCRSSQSLLHRNGYNYLDWYLQKPGQSPQLLIHLGSYRASGVPDRFSGSGSGTDFTLKISRVEAEDVGVYYCMQPLQTPFTFGPGTKVDIK: 1.7

Next binder, IC50 of MMP-14 inhibition (MMP-14 at 2 pM), IgG to be filled in.
IN: If you can, please state the reported IC50 of MMP-14 inhibition (MMP-14 at 2 pM), IgG value of M0037-D01 IgG (antibody, V domains shown, IgG of the Fab) VH: EVQLLESGGGLVQPGGSLRLSCAASGFTFSMYMMIWVRQAPGKGLEWVSSIYPSGGNTMYADSVKGRFTISRDNSKNTLYLQMNSLRAEDTAVYYCATGVLRYFDWDAGSGMDVWGQGTTVTVSS VL: DIQMTQSPSSLSASVGDRVTITCRASQGIRNDLGWYQQKPGKAPKRLIYVASSLQSGVPSRFSGSGSGTEFTLTISSLQPEDFATYYCLQHNSYPWTFGQGTKVEIK .
OUT: 1.7
